Data origin, for the record: patent US20250320312A1

- MEASURED ON: T1, Peptide 8: Biotin-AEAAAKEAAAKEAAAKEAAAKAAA-Tyr-acid (N-terminal biotin; C-terminal acid; no PC)
- T1 construct: control peptide without PC
- T1 peptide: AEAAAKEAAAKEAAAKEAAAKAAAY
- PROTOCOL TEXT: scFv ELISA
PROPERTY: OD450 (OD450)
Answer in OD450, number only, no unit symbol.

- BINDER: "PcOxP_DB01_B10 (scFv, V domains shown, scFv in periplasmic extract) VH: EVQLLESGGGLVQPGGSLRLSCAASGFTFSDFYMEWVRQAPGKGLEWVAASRNKANDYTTTYADSVKGRFTISRDNSKNTLYLQMNSLRAEDTAVYYCARDYYGSSHWYFDVWGQGTLVTVSS VL: DIVMTQSPDSLAVSLGERATINCTASESLYSSKGKVHYLAWYQQKPGQPPKLLIYGASNRYIGVPDRFSGSGSGTDFTLTISSLQAEDVAVYYCVQFYSYPLTFGGGTKVEIK"
  OD450 / OD450: 0.04
- BINDER: "PcOxP_DB01_A03 (scFv, V domains shown, scFv in periplasmic extract) VH: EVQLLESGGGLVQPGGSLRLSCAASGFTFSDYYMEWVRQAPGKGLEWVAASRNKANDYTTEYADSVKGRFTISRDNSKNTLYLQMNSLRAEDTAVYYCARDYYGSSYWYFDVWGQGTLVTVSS VL: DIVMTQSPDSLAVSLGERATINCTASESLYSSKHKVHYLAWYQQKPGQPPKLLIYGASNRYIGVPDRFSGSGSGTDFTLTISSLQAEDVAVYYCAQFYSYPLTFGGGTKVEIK"
  OD450 / OD450: 0.04

Read the next record carefully.
Summary for this binder, PcOxP_DB01_E02 (scFv, V domains shown, scFv in periplasmic extract) VH: EVQLLESGGGLVQPGGSLRLSCAASGFTFSDYYMEWVRQAPGKGLEWVAASRNKGNDYTTEYADSVKGRFTISRDNSKNTLYLQMNSLRAEDTAVYYCARDYYGSSYWYFDVWGQGTLVTVSS VL: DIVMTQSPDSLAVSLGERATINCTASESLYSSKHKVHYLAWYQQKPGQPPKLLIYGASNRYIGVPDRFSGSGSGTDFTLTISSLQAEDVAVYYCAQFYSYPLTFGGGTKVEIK : OD450 is 0.05
